All values here come from patent US7381554B2.

Biological target: C2GnT (Homo sapiens, UniProt Q02742)
Construct: Plasmids pAcGP67-C2/4GnT-sol and pAcGP67-C2GnT-sol were co-transfected with; gp67 secretion signal of vector pAcGP67 (own knowledge of the vector); made in house; host or cells: Sf9 cells (baculovirus, culture supernatant)
Sequence (Q02742 33-428 limits assumed): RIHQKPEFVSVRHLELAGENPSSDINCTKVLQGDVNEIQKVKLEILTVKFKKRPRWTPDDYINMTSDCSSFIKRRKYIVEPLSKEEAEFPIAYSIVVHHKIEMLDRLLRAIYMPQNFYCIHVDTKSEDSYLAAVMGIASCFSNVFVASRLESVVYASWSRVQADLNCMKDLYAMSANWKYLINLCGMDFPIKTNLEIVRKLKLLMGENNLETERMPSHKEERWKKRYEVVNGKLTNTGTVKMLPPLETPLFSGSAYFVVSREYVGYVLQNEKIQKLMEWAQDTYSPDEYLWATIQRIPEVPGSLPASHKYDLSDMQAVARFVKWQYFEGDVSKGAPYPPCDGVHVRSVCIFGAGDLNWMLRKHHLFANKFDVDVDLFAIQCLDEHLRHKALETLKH
Assay: C2GnT GlcNAc-transferase activity assay with acceptor substrates
Type: biochemical
Settings: acceptor substrate 10 mM; partially purified media of infected High Five cells; background subtracted
measured attribute: Substrate specificity: C2GnT activity, 10 mM

Here's what some known entries look like.
CC(=O)N[C@@H]1[C@@H](O[C@@H]2O[C@H](CO)[C@H](O)[C@H](O)[C@H]2O)[C@@H](O)[C@@H](CO)O[C@@H]1O; 19.0 nmol/h/mg
CC(=O)N[C@H]1[C@@H](Oc2ccc([N+](=O)[O-])cc2)O[C@H](CO)[C@H](O)[C@@H]1O; <0.1 nmol/h/mg
CC(=O)N[C@H]1[C@@H](Oc2ccc([N+](=O)[O-])cc2)O[C@H](CO)[C@H](O)[C@@H]1O[C@@H]1O[C@H](CO)[C@H](O)[C@H](O)[C@H]1O; 23.6 nmol/h/mg
CC(=O)N[C@H]1[C@H](O[C@H]2[C@@H](O)[C@@H](CO)O[C@@H](O[C@H]3[C@H](O)[C@@H](O)C(O)O[C@@H]3CO)[C@@H]2O)O[C@H](CO)[C@@H](O[C@@H]2O[C@H](CO)[C@H](O)[C@H](O)[C@H]2O)[C@@H]1O (mixture of isomers); <0.1 nmol/h/mg
CC(=O)N[C@H]1C(O)O[C@H](CO)[C@H](O)[C@@H]1O (stereo partly shown); <0.1 nmol/h/mg
CC(=O)NC1C(OC2C(O)C(CO)OC(Oc3ccc([N+](=O)[O-])cc3)C2NC(C)=O)OC(CO)C(O)C1O (stereo not shown); <0.1 nmol/h/mg

Please examine the following record next.
Ask | Can you look up the measured Substrate specificity: C2GnT activity, 10 mM of `CO[C@@H]1O[C@H](CO)[C@H](O)[C@H](O[C@@H]2O[C@H](CO)[C@@H](O)[C@H](O)[C@H]2NC(C)=O)[C@H]1O` for me?
Reply | <0.1 nmol/h/mg
